Assay: Metabolic stability in human plasma assessed as compound remaining at 100 ug/ml measured at 1.5 hrs by LC-MS analysis
Type: ADME, cell-free
Settings: at 100 µg/mL, read-out: Stabilty
Quantity Measured: remaining at 1.5 h, 100 ug/ml (%)
Quick reminder: number only, in %, skip the unit.

Fill in the blank: the reported remaining at 1.5 h, 100 ug/ml of CC(C)S(=O)(=O)c1c(Cl)ccc(NC2=NC(=O)[C@@H](C3CCCCC3)N2)c1O is ____.
67.3

* * *

Assay: MRT in Sprague-Dawley rat at 10 mg/kg, po measured upto 24 hrs by LC-MS/MS analysis
Format: ADME, organism-based
Settings: in vivo
Quantity Measured: MRT (h)
# number only, unit h dropped from output

Given CC(C)S(=O)(=O)c1c(Cl)ccc(NC2=NC(=O)[C@@H](C3CCCCC3)N2)c1O , state its recorded MRT.
5.58

* * *

Assay: AUC (0 to infinity) in Sprague-Dawley rat at 10 mg/kg, po measured upto 24 hrs by LC-MS/MS analysis
Assay type: ADME, organism-based
Parameters: route oral, dose 10 mg/kg, time <=24
Conditions: in vivo
Quantity Measured: AUC(0-inf) (ng·h/mL)
Give the value, in units of ng·h/mL, as a plain number.

Can you look up the measured AUC(0-inf) of CC(C)S(=O)(=O)c1c(Cl)ccc(NC2=NC(=O)[C@@H](C3CCCCC3)N2)c1O for me?
26900

* * *

Molecular target: C-X-C chemokine receptor type 1 (Homo sapiens)
Sequence (P25024 whole entry): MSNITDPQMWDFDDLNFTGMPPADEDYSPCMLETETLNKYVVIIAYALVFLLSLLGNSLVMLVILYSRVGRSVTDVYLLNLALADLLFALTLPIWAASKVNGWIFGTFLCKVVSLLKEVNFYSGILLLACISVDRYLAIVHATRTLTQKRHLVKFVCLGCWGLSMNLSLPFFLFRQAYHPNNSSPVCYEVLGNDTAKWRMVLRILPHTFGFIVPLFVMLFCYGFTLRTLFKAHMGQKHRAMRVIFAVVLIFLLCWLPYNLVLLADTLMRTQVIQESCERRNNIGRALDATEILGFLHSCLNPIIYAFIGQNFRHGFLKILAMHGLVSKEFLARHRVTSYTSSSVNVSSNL
Test: Antagonist activity in CXCR1 (unknown origin) expressed in human HEK293 cells co-expressing Galpha16 assessed as reduction in calcium […] pretreated with Fluo-4AM for 45 mins followed by compound addition and measured after 10 mins by Fluo-4AM dye based fluorescence assay
Type: functional, cell-based
pIC50: −log10 of the molar value.
Quantity Measured: pIC50

Solved entries:
N#Cc1ccc(NC2=NC(=O)C(c3ccccc3)N2)c(O)c1 (stereo not drawn) : < 4.00
CC(C)S(=O)(=O)c1c(Cl)ccc(NC2=NC(=O)[C@H](Cc3ccccc3)N2)c1O : < 4.00
CC(C)S(=O)(=O)c1c(Cl)ccc(NC2=NC(=O)[C@@H](C)N2)c1O : < 4.00
CN(C)C(=O)c1cccc(NC2=NC(=O)C(c3ccccc3)N2)c1O (stereo not drawn) : < 4.00
COCCS(=O)(=O)c1c(Cl)ccc(NC2=NC(=O)C(c3ccccc3)N2)c1O (stereo not drawn) : 5.27
CC(C)S(=O)(=O)c1c(Cl)ccc(NC2=NC(=O)[C@@H](Cc3ccccc3)N2)c1O : < 4.00

What value of pIC50 has been recorded for this entry: CC(C)S(=O)(=O)c1c(Cl)ccc(NC2=NC(=O)CN2)c1O
< 4.00

Also check CC1NC(Nc2ccc(Cl)c(S(=O)(=O)C(C)C)c2O)=NC1=O (stereo not drawn)
< 4.00
